test system: Escherichia coli TOP10; test: shrunken log2 fold change of peptide-encoding DNA abundance (4.5 h post-induction vs induction); higher = less antimicrobial activity (less host growth inhibition); settings: time post-induction: 4.5 h; library: site-saturation at positions 5, 18, 19, 20;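 further: peptides expressed intracellularly from a pBAD plasmid library in pooled LB shake-flask culture, induced with 0.3% L-arabinose, DNA abundance read by NGS, three biological replicates, DESeq2 with apeglm shrinkage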
The threshold is inclusive: shrunken log2 fold change of exactly 0.1 counts as Yes; values below receive No.

ordered-residues | answer-label
RRIRTRPPRLPRPRPRPDPCPRP | No
RRIRWRPPRLPRPRPRPEQMPRP | Yes
RRIRCRPPRLPRPRPRPGDKPRP | No
RRIRLRPPRLPRPRPRPHVEPRP | Yes
RRIRTRPPRLPRPRPRPKHVPRP | No
RRIRSRPPRLPRPRPRPACFPRP | Yes
RRIRERPPRLPRPRPRPFAVPRP | No
RRIRNRPPRLPRPRPRPQVNPRP | No
RRIRHRPPRLPRPRPRPKNMPRP | No
RRIRKRPPRLPRPRPRPEPSPRP | Yes
RRIRDRPPRLPRPRPRPEAPPRP | Yes
RRIRYRPPRLPRPRPRPRLKPRP | Yes
RRIRARPPRLPRPRPRPFRTPRP | Yes
RRIRPRPPRLPRPRPRPSGNPRP | No
RRIRKRPPRLPRPRPRPPWWPRP | Yes

Where do the numbers come from? From the supplement of paper PMC9112550.
